Quick reference for growth inhibition among some molecules
experiment: NCI Yeast Anticancer Drug Screen. Data for the rad50 strain (AID 155);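 note: 0% = growth of vehicle-only cultures of the same strain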; settings: S. cerevisiae rad50 strain growth inhibition; at 5.0 µM (retest, dose inferred, filed as 0.5); hits give high values
About 79,000 compounds went through this panel and 15% of them were active in at least one assay; those are over-represented in the sample as a whole.
Just the number please, in %, no unit attached.

Known growth inhibition results, listed for orientation:
molecule	parameter.measured	val
[N-]=[N+]=NC1(c2ccccc2)C(=O)Nc2ccccc2C1=O (stereo unspecified)	growth inhibition	-4
CCCCCCNCCCNc1c2cc(OC)ccc2nc2cccc([N+](=O)[O-])c12	growth inhibition	35

# ---- query molecule ----
query: If you can, please state the reported growth inhibition value of CC(C)(Br)C(=O)/C=C/c1ccccc1 .
result: 15

---

Quick reference for growth inhibition among some molecules
test: NCI Yeast Anticancer Drug Screen. Data for the sgs1 strain (AID 173);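 note: 0% = growth of vehicle-only control cultures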; conditions: S. cerevisiae sgs1 mutant, at 1.2 µM, hits give high values
The panel holds about 79,000 compounds, 15% with a hit somewhere; the sample as a whole holds those more often.
Just the number please, in %, no unit attached.

molecule	parameter.measured	readout.unit	val
O=C1CCC(Cc2ccccc2)CN1 (centres undefined)	growth inhibition	%	0
CCCCCCCN(CCCCCCC)CC(=O)c1ccc2cc(Cl)c3ccccc3c2c1	growth inhibition	%	5
O=C(Nc1cccs1)c1ccccc1	growth inhibition	%	0
O=C(O)CNC(c1ccccc1)(c1ccccc1)c1ccccc1	growth inhibition	%	3
Cc1ccc([N+](=O)[O-])c2c(NCCC[N+](C)(C)[O-])c3ccccc3nc12	growth inhibition	%	-7

query: If you can, please state the reported growth inhibition value of Cc1ccccc1NC(=O)c1c(C)oc2c1C(=O)c1ccccc1C2=O .
result: -15

---

assay: NCI Yeast Anticancer Drug Screen. Data for the mec2-1 strain (AID 157); conditions: S. cerevisiae mec2-1 strain, at 3.7 µM
About 79,000 compounds went through this panel and 15% of them were active in at least one assay; those are over-represented in the sample as a whole. The source made the active and inactive calls. Cut-off read from the data, not from the text of the source: active = growth inhibition above about 70%; inactive = the rest.
Log the outcome using a class from 1.0 = active, 0.0 = inactive

These recorded examples may help you get a feel for the data.
compound	discrete.label
CCCCCCCC/C=C\CCCCCCCCN	0.0
CNC(=O)OCc1c(COC(=O)NC)c(C)n(-c2ccc(Br)cc2)c1C	0.0
O=C1SS(=O)c2ccccc21 (configuration not stated)	0.0
O=C1C=C(NCCc2cc(Br)c(O)c(Br)c2)C(=O)c2ncccc21	0.0
CC1(C)CC(=O)C(C=NC(=S)C(N)=S)=C(O)C1	0.0
CCOP(=O)(OCC)/C(C#N)=C/c1ccc(-c2ccc(F)cc2F)o1	0.0
COC(=O)C(=O)CC(=O)c1cccc(OC)c1	0.0
c1ccc2c(c1)ccn2CCc1c[nH]c2ccccc12	0.0

query: Given Cn1c(-c2ccc(/C=N\N3CCN(/N=C/c4ccc(-c5c[n+]6ccsc6n5C)cc4)CC3)cc2)c[n+]2ccsc12 , state the outcome it received in this test.
result: 0.0

query: Given CCCCCCCSCC1C(=O)C23C(O)C1CCC2C12COC3(O)C(O)C1C(C)(C)CCC2O (configuration not stated) , state the outcome it received in this test.
result: 0.0

query: Given COc1ccc2cc3c4cc5c(cc4cc[n+]3cc2c1OC)OCO5 , state the outcome it received in this test.
result: 0.0

query: Given CCN(CC)CCNc1ccc2nc(C)n3c4ccc(O)cc4c(=O)c1c23 , state the outcome it received in this test.
result: 0.0

query: Given CC1(c2ccccc2)O[C@@H]2C[C@H]3[C@@H]4CCC5=CC(=O)C=C[C@]5(C)[C@@]4(F)[C@@H](O)C[C@]3(C)[C@]2(C(=O)CO)O1 (some centres not stated) , state the outcome it received in this test.
result: 0.0

query: Given CCCCCCCCCCCCCCCCCCN(C)C(COC)COP(=O)([O-])OCC[N+](C)(C)C (configuration not stated) , state the outcome it received in this test.
result: 0.0

query: Given CC(C)Cc1ncc(CCCN=C(N)N)[nH]c1=O , state the outcome it received in this test.
result: 0.0

query: Given O=[N+]([O-])c1ccc(C(c2c[nH]c3ccccc23)c2c[nH]c3ccccc23)cc1 , state the outcome it received in this test.
result: 1.0

query: Given O=C(Cc1ccccc1)NNc1nc(NNC(=O)c2ccncc2)nc(Nc2ccc([N+](=O)[O-])cc2)n1 , state the outcome it received in this test.
result: 0.0

query: Given COc1cc([N+](=O)[O-])c2ncccc2c1Br , state the outcome it received in this test.
result: 0.0

query: Given Cc1cc2nc3ccccc3n2c2ccccc12 , state the outcome it received in this test.
result: 0.0

Just for reference, PubChem BioAssay (NCI) is where these values come from.
